- target_entity: cytosolic kinase domain of KDR kinase (Homo sapiens)
- Construct: The cytosolic kinase domain of KDR kinase was expressed as a 6His fusion protein in Sf9 insect cells; 6His
- Sequence (P35968 834-1162 limits assumed): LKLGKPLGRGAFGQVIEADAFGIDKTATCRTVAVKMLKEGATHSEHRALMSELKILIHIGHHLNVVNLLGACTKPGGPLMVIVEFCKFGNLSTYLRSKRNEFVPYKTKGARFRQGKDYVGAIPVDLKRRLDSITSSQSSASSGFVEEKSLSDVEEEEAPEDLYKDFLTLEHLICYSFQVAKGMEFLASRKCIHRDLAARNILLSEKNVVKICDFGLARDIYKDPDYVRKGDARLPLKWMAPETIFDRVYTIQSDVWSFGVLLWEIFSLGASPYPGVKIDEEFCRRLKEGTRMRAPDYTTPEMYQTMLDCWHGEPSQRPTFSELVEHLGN
- protocol_notes: KDR Assay (ELISA, poly(Glu4;Tyr1) phosphorylation)
- experimental_setup: 3.3 μM ATP, 60 minutes at room temperature
pIC50: −log10 of the molar value.
For each of the molecules below, state its pIC50.

Answered examples (4):
CNC(=O)c1cc(COc2nnc(Nc3ccc(O)cc3)c3ccoc23)ccn1 [Example 57] ... ≥ 7.00
CNC(=O)c1cc(COc2nnc(Nc3cccc(C)c3)c3ccsc23)ccn1 [Example 68] ... ≥ 7.00
CNC(=O)c1cc(COc2nnc(Nc3ccc(OC(F)(F)F)cc3)c3ccsc23)ccn1 [Example 70] ... ≥ 7.00
c1nc2c(Nc3ccc4nn[nH]c4c3)nnc(Nc3ccc4nn[nH]c4c3)c2[nH]1 [Example 31] ... < 6.00

The reported pIC50 value, cytosolic kinase domain of KDR kinase (Homo sapiens), for CNC(=O)c1cc(COc2nnc(Nc3ccc(N(C)C)cc3)c3ccoc23)ccn1 [Example 41] reads < 6.00
